System: S. Pneumoniae Type 1
PROCEDURE_DETAILS: MIC, agar plate dilution method
Format: cell-based
RUN_PARAMETERS: Streptococcus pneumoniae; S. Pneumoniae Type 1; 37° C., 20 hours; read-out: Antimicrobial activity (MIC)
MEASURED_METRIC: MIC (µg/mL)
Please reply with the bare figure in µg/mL and do not write the unit itself.

Recorded results for 2 molecules are shown here.
MOLECULE: CCCCO[C@H]1[C@H](C)O[C@@H](O[C@H]2[C@H](N(C)C)[C@@H](O)[C@H](O[C@H]3[C@@H](CC=O)C[C@@H](C)[C@@H](O)/C=C/C=C/C[C@@H](C)OC(=O)C[C@@H](O)[C@@H]3OC)O[C@@H]2C)C[C@@]1(C)OC
U: µg/mL
NUMBER: 0.2
--
MOLECULE: CCC(=O)O[C@H]1[C@H](C)O[C@@H](O[C@H]2[C@H](N(C)C)[C@@H](O)[C@H](O[C@H]3[C@@H](CC=O)C[C@@H](C)[C@@H](O)/C=C/C=C/C[C@@H](C)OC(=O)C[C@@H](O)[C@@H]3OC)O[C@@H]2C)C[C@@]1(C)O [LM-A7, leucomycin A7, reference compound]
U: µg/mL
NUMBER: 0.2

Please look at the following molecule next.
Exam item: Requested field: MIC. Item: CCC(=O)O[C@@H]1CC(=O)O[C@H](C)C/C=C/C=C/[C@H](O)[C@H](C)C[C@H](CC=O)[C@H](O[C@@H]2O[C@H](C)[C@@H](O[C@H]3C[C@@](C)(OC)[C@@H](OCCC(C)C)[C@H](C)O3)[C@H](N(C)C)[C@H]2O)[C@H]1OC
Marked response: 0.2
